System: MINK
Construct: gene MINK1
Settings: concentration: 1 μM, replicates: in singlicate; n = 1;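 further: KINOMEscan kinase panel screen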
QUANTITY_MEASURED: %Inh (%)
Hi! Could you send only the number? It should be in %, unit omitted.

{"columns": ["COMPOUND", "EXPERIMENTAL_SYSTEM", "UNITS_SYMBOL", "VALUE_OBSERVED"],
 "data": [
  ["O=C1NC(=O)C(N2CCc3ccccc32)=C1c1cccc(Cl)c1", "MINK", "%", 0],
  ["COCCNC(=O)c1ccc(-c2cc(C(=O)NC3CC3)cc(F)c2C)cc1", "MINK", "%", 23]
]}

## Task Form field: reported %Inh of C[C@@H](Oc1cc(-n2cnc3ccc(NC(=O)NC(C)(C)C)cc32)sc1C(N)=O)c1ccccc1Cl
## Result 4

## Task I would be grateful if you could share the reported %Inh for Cc1nnc(-c2ccc3occ(-c4ccc(C(C)O)cc4)c3c2)o1 (stereo not shown) .
## Result 0

## Task Endpoint output: %Inh of O=C(Nc1n[nH]c2cc(-c3cccc(F)c3)ccc12)C1CC1 . Value?
## Result 61

## Task Report %Inh for c1ccc(-c2cc(-c3c[nH]nc3-c3ccccn3)ccn2)cc1 please.
## Result 71

## Task # lookup: %Inh of Cn1ccc2ncnc(Oc3ccc(NC(=O)Nc4ccncc4)c(Cl)c3)c21
## Result 0

====

Test system: MEK5
Construct: gene MAP2K5
Details: concentration: 1 μM, replicates: in singlicate; n = 1
# class 1 = %Inh below 30% (exclusive); class 0 = %Inh at/above 30%

Answered examples (10):
{"columns": ["MOLECULE", "GROUP_LABEL"],
 "data": [
  ["Cl.Nc1ncnc2occ(-c3ccc(NC(=O)Nc4cc(C(F)(F)F)ccc4F)cc3)c12", "class 0"],
  ["O=c1cc(N2CCOCC2)nc2n(Cc3cccc(C(F)(F)F)c3)ccn12", "class 1"],
  ["CCc1nc(-c2cccc(C)c2)c(-c2ccnc(NCc3ccccc3)c2)s1", "class 1"],
  ["Cc1cccc(Cn2ccn3c(=O)cc(N4CCOCC4)nc23)c1", "class 1"],
  ["C[C@@H](Oc1cc(-n2cnc3ccc(NC(=O)NC(C)(C)C)cc32)sc1C(N)=O)c1ccccc1Cl", "class 1"],
  ["Cl.Oc1cccc(Nc2ccnc3cc(-c4ccncc4)ccc23)c1", "class 0"],
  ["Cn1cc(-c2ccc3c(c2)CCN3C(=O)Cc2ccccc2Cl)c2c(N)ncnc21", "class 0"],
  ["COc1ccc(Nc2nccc(N3CCC(NC(=O)Nc4cccc(C(C)=O)c4)C3)n2)cc1 (stereo not drawn)", "class 0"],
  ["CN1c2ccc(CNc3ccc(F)cc3)cc2-c2c(cnn2C)S1(=O)=O", "class 0"],
  ["c1ccc(-c2cc(-c3c[nH]nc3-c3ccccn3)ccn2)cc1", "class 0"]
]}

## Task Item Cc1nnc(-c2ccc(C)c(-c3ccc(C(=O)Nc4ccc(NS(C)(=O)=O)cc4)cc3)c2)o1 : %Inh beneath 30%, strictly?
## Result class 1

## Task Say whether its %Inh is strictly beneath 30%. Entry: NS(=O)(=O)c1cccc(-c2ccc3ncc(N4CCOCC4)nc3c2)c1
## Result class 1

## Task Is it true that %Inh reported for Fc1ccc(-c2ncn(CCCN3CCOCC3)c2-c2ccccn2)cc1 is less than 30%?
## Result class 1

====

%Inh by entry:
Tested on: STK35
Conditions: concentration: 1 μM, replicates: in singlicate; n = 1
Numeric answer only, unit % assumed.

Worked cases, answers included:
{"columns": ["MOLECULE", "UNITS_SYMBOL", "%Inh"],
 "data": [
  ["c1ccc(-c2n[nH]cc2-c2ccnc3ccccc23)nc1", "%", 19],
  ["O=C(Nc1cccc(-c2nn3ncccc3c2-c2ccnc(Nc3cccc(C(F)(F)F)c3)n2)c1)c1c(F)cccc1F", "%", 54],
  ["C[C@@H](Oc1cc(-n2cnc3ccc(NC(=O)NC(C)(C)C)cc32)sc1C(N)=O)c1ccccc1Cl", "%", 0]
]}

## Task I have this molecule here, O=c1cc(N2CCOCC2)nc2n(Cc3cccc4ccccc34)ccn12 , and I need its recorded %Inh.
## Result 2

## Task For the molecule shown here, CC(C)Oc1ccc2c(-c3ccnc(Nc4ccc(N5CCN(C)CC5)cc4)n3)cnn2n1 , give the reported %Inh.
## Result 45

## Task Entry Cc1nnc(-c2ccc(C)c(-c3ccc(C(=O)Nc4ccc(NS(C)(=O)=O)cc4)cc3)c2)o1 has what %Inh?
## Result 0

## Task Recorded %Inh for Nc1nccc(-c2c(-c3ccc(F)cc3)ncn2C2CCN(CC(F)(F)F)CC2)n1 , please?
## Result 0

## Task Please look up its %Inh: NCCNS(=O)(=O)c1ccc(-c2ccnc3[nH]ccc23)cc1
## Result 0

====

Test system: CSNK1A1
Conditions: concentration: 1 μM, replicates: in singlicate; n = 1
Response field label: string, one of met (%Inh strictly below 1%) or not met.

Solved entries (count: 10):
{"columns": ["COMPOUND", "GROUP_LABEL"],
 "data": [
  ["CN(C(=O)c1ccc(-c2cc(-c3c[nH]nc3-c3ccccn3)ccn2)cc1)C1CCOCC1 [GW810083]", "not met"],
  ["COc1ccc(Nc2nccc(N3CCC(NC(=O)Nc4cc(C)ccc4C)C3)n2)cc1 (stereo not drawn) [GSK1379741]", "met"],
  ["CCc1nc(-c2cccc(C)c2)c(-c2ccnc(NCc3ccccc3)c2)s1", "not met"],
  ["Cc1c2ccc(N(C)c3ccnc(Nc4cccc(S(N)(=O)=O)c4)n3)cc2nn1Cc1ccccc1.Cl.Cl [GW787226]", "not met"],
  ["NS(=O)(=O)c1cccc(-c2ccc3nccc(-c4cccc(S(N)(=O)=O)c4)c3c2)c1 [GW867253]", "met"],
  ["O=C(NOCC1CC1)c1ccc(F)c(F)c1Nc1ccc(I)cc1Cl", "not met"],
  ["Cl.Nc1ncnc2occ(-c3ccc(NC(=O)Nc4cc(C(F)(F)F)ccc4F)cc3)c12 [SB-707548]", "not met"],
  ["O=C(Nc1n[nH]c2cc(-c3cccc(F)c3)ccc12)C1CC1 [SB-735464]", "met"],
  ["Cc1cccc(-c2nc(-c3ccc(S(C)(=O)=O)cc3)sc2-c2ccncc2)c1", "not met"],
  ["O=C(Nc1cccc(-c2nn3ncccc3c2-c2ccnc(Nc3cccc(C(F)(F)F)c3)n2)c1)c1c(F)cccc1F [GSK299495]", "met"]
]}

## Task Regarding COc1cc2ncn(-c3cc(OCc4sccc4Cl)c(C(N)=O)s3)c2cc1OC [GSK448459] , kindly confirm whether its %Inh is beneath 1%.
## Result met

## Task Dear reviewer, please state whether COc1ccc(COc2cc(-n3cnc4ccccc43)sc2C(N)=O)cc1 [GSK1024304] has %Inh strictly beneath 1%.
## Result met

## Task # strict comparison: is reported %Inh < 1%? input = O=C1NC(=O)C(N2CCc3ccccc32)=C1c1cccc(Cl)c1 [SB-408010]
## Result not met

## Task Given Cc1cccc(-c2nc(Nc3ccc4ncsc4c3)c3ccccc3n2)n1 [GW867588] , is recorded %Inh strictly lower than 1%?
## Result met

## Task For this compound, is %Inh lower than 1%? CC(=O)Nc1ccc(COc2ccc(Nc3ccnc4cc(-c5ccccn5)ccc34)cc2)cc1.Cl [GW440148]
## Result met

## Task Decide: %Inh of CN1c2ccc(NCc3ccc(F)cc3)cc2-c2c(cnn2C)S1(=O)=O strictly below 1%?
## Result met

## Task In plain terms, does CN(C1=C(c2ccccc2)C(=O)NC1=O)c1ccccc1 [SB-334860] come in under 1% for %Inh?
## Result met

====

Test system: BTK
Details: concentration: 1 μM, replicates: in singlicate; n = 1
QUANTITY_MEASURED: %Inh (%)
State the answer as a number, implicitly in %.

{"columns": ["COMPOUND", "VALUE_OBSERVED"],
 "data": [
  ["COc1cc2c(cc1OC[C@@H](O)CO)ncc1c3ccc(C#N)cc3[nH]c21", 0]
]}

## Task # query: %Inh of entry Cc1ccc(C(=O)NCC(N)=O)cc1-n1c(C)cc(OCc2ccc(F)cc2F)c(Br)c1=O
## Result 0

## Task # get_value(readout='%Inh', item= C[C@@H](Oc1cc(-n2cnc3ccc(NC(=O)NC(C)(C)C)cc32)sc1C(N)=O)c1ccccc1Cl )
## Result 6

## Task Need %Inh, item CN(C1=C(c2ccccc2)C(=O)NC1=O)c1ccccc1
## Result 0

## Task Entry under review: COc1ccc(COc2cc(-n3cnc4ccccc43)sc2C(N)=O)cc1 . Reported %Inh?
## Result 0

====

Tested on: RPS6KA4(Kin.Dom.1-N-terminal)
Details: concentration: 1 μM, replicates: in singlicate; n = 1
Listed here: items and their measured %Inh.
Just the number please, in %, no unit attached.

The following compounds have reported results that may help.
{"columns": ["COMPOUND", "EXPERIMENTAL_SYSTEM", "UNITS_SYMBOL", "%Inh"],
 "data": [
  ["COc1ccc(Nc2nccc(N3CCC(NC(=O)Nc4cccc(C(C)=O)c4)C3)n2)cc1 (centres unmarked) [GSK1379731]", "RPS6KA4(Kin.Dom.1-N-terminal)", "%", 2],
  ["COc1cc2c(cc1OC[C@@H](O)CO)ncc1c3ccc(C#N)cc3[nH]c21", "RPS6KA4(Kin.Dom.1-N-terminal)", "%", 0],
  ["CC(=O)Nc1ccc(COc2ccc(Nc3ccnc4cc(-c5ccccn5)ccc34)cc2)cc1.Cl [GW440148]", "RPS6KA4(Kin.Dom.1-N-terminal)", "%", 0],
  ["O=c1cc(N2CCOCC2)nc2n(Cc3cccc4ccccc34)ccn12 [GSK2333389]", "RPS6KA4(Kin.Dom.1-N-terminal)", "%", 12],
  ["NS(=O)(=O)c1cccc(-c2ccc3ncc(N4CCOCC4)nc3c2)c1 [GSK1535721]", "RPS6KA4(Kin.Dom.1-N-terminal)", "%", 4]
]}

## Task Notebook: pull reported %Inh for RPS6KA4(Kin.Dom.1-N-terminal), entry Cc1cccc(Cn2ccn3c(=O)cc(N4CCOCC4)nc23)c1 [GSK2297542]
## Result 13

## Task Fill in the recorded %Inh for this compound, with RPS6KA4(Kin.Dom.1-N-terminal) as test system: Fc1ccc(-c2nn3c(OCC(F)(F)F)cccc3c2-c2ccncc2)cc1 [GW514784]
## Result 10

## Task API: value(readout= %Inh, system= RPS6KA4(Kin.Dom.1-N-terminal), query= CSc1ccc(-c2cc3ncnc(SCC(=O)O)c3s2)cc1 )
## Result 0

## Task Report %Inh for COc1ccc(COc2cc(-n3cnc4ccccc43)sc2C(N)=O)cc1 [GSK1024304] tested on RPS6KA4(Kin.Dom.1-N-terminal).
## Result 0

## Task Hello, I am looking for reported %Inh with RPS6KA4(Kin.Dom.1-N-terminal) for O=C1Cc2cc(Nc3nc(NCc4cccc(S(=O)(=O)C(F)(F)F)c4)ncc3C(F)(F)F)ccc2N1 . Could you help?
## Result 11

## Task Could you share what %Inh was measured for O=C(NCCNc1ccnc(Nc2ccc(F)cc2)n1)c1cc2ccccc2s1 [GSK1379874] , tested on RPS6KA4(Kin.Dom.1-N-terminal)?
## Result 0

Reference source: paper PMC5540273
